Data provenance is the supplement of paper PMC10567573.

B1: TRIM29 (parent)
chain: FAEKGELRKSIFSESRKPTVSIME

Variants of: B1
Assay: protein stability index of a GFP-peptide fusion (GPS, HEK-293T) (PSI 1-6); higher = more stable;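 also: lentivirally expressed fusions sorted by FACS into six bins by GFP to DsRed ratio, PSI derived from sequencing read proportions per bin multiplied by bin number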
Conditions: c terminus: a fixed tail appended
Can you tell me protein stability index for the items I'm about to list?
Respond numerically, and do not add a unit to the figure.

If you can, please state the reported protein stability index value of E3H .
1.66

If you can, please state the reported protein stability index value of E24R .
1.3

If you can, please state the reported protein stability index value of R16G .
1.99

If you can, please state the reported protein stability index value of R16A .
1.49

If you can, please state the reported protein stability index value of S13I .
1.45

If you can, please state the reported protein stability index value of S13G .
1.7

If you can, please state the reported protein stability index value of K4S .
1.8

If you can, please state the reported protein stability index value of S10A .
1.91

If you can, please state the reported protein stability index value of I22W .
1.67

If you can, please state the reported protein stability index value of S15L .
1.96

If you can, please state the reported protein stability index value of S15E .
2.01

If you can, please state the reported protein stability index value of V20K .
2.08

If you can, please state the reported protein stability index value of L7C .
2.8

If you can, please state the reported protein stability index value of E24G .
2.2

If you can, please state the reported protein stability index value of S15C .
1.59

If you can, please state the reported protein stability index value of P18E .
2.35

If you can, please state the reported protein stability index value of S10C .
1.53

If you can, please state the reported protein stability index value of F12T .
3.54

If you can, please state the reported protein stability index value of R8T .
2

If you can, please state the reported protein stability index value of K17P .
1.54

If you can, please state the reported protein stability index value of R16N .
1.5

If you can, please state the reported protein stability index value of A2S .
2.53
